// data source = patent US20260116991A1

Form field: OD450 at 13.33 nM (one value per entry).
# target.of.assay: biotinylated labeled human GPC3 protein (produced in-house) (human, UniProt P51654 25-559, limits assumed, biotinylated (Dojindo, Cat. No. LK03); sites not stated)
# measurement.notes: ELISA, biotinylated human GPC3 protein
Reply with just the number (in OD450).

# example entries with known answers
1. hAb005LH1L1a (antibody, human IgG1, V domains shown, Humanized F3.54.12; VH H1 + VL L1a; expressed as human IgG1) VH: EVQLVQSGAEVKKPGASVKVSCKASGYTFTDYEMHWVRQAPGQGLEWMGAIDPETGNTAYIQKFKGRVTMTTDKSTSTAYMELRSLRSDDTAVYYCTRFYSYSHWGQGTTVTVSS VL: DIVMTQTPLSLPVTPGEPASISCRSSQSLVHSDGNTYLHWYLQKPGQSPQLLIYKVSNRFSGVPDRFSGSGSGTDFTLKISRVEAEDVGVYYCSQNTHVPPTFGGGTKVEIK; 0.208
2. hAb007LH1L1b (antibody, human IgG1, V domains shown, Humanized F3.81.19; VH H1 + VL L1b; expressed as human IgG1) VH: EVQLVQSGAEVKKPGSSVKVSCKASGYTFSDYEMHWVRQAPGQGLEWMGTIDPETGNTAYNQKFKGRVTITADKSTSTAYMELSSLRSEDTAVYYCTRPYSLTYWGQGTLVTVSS VL: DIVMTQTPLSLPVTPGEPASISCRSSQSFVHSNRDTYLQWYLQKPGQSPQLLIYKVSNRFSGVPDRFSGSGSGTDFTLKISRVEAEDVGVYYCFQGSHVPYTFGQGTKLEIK; 2.38

Now turn to the next binder.
## Input GET /values?readout=OD450 at 13.33 nM&item= hAb007LH1L1 (antibody, human IgG1, V domains shown, Humanized F3.81.19; VH H1 + VL L1; expressed as human IgG1) VH: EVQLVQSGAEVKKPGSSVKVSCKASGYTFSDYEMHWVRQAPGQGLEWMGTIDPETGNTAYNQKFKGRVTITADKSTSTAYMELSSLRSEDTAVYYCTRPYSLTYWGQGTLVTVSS VL: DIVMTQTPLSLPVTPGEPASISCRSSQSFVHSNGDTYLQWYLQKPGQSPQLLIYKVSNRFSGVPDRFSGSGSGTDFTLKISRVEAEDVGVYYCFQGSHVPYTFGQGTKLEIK
## Output 2.38
